# Test system: HCT-15 colon
# assay remarks: NCI tumour cell line growth inhibition, 48 h
recorded endpoint: TGI

Reported TGI of Cc1ccc(C2=CC(=O)/C(=C\C(=O)c3ccc(Br)cc3)O2)c(C)c1 : 36.9 µM

So for C[N+]1(C)CCCC(C#N)(c2ccccc2)CC1 (stereo unspecified) , the logged TGI turned out to be > 100 µM

The recorded TGI for COc1cc(C(=O)c2cnc(-c3c[nH]c4cccc(C)c34)[nH]2)cc(OC)c1OC is > 100 µM

Consider CC(=O)c1cc2c(N)c(C(=O)Nc3cccc4ccccc34)sc2nc1C . Its measured TGI is > 50 µM

Given item Oc1c(Br)cc2c(c1Br)-c1c(c(O)c3c4c1=NCCC=4C=N3)NCC2 , the value recorded as its TGI is 30.6 µM

// sample Cc1nc2c(C)ccc([N+](=O)[O-])c2c(NCCCN(C)C)c1C , its TGI was > 54.2 µM

// TGI value for Cc1c(Cl)ccc2c1NC(=O)C2(O)CC(=O)c1ccc(Cl)cc1 (stereo unspecified) : > 60.1 µM

Sure, the documented TGI for CCOP1(=O)CC(C)=C(Cl)C(OC)C1 (stereo unspecified) is > 100 µM

Kindly note the recorded TGI for c1ccc(C(Oc2noc3ccccc23)c2ccccc2)cc1 , which is > 100 µM

For CN1C2C=CC(=O)C1C1C(=O)N(c3ccccc3)C(=O)C12 (stereo unspecified) the compound record lists TGI as 20.3 µM

For O=C1c2cc3c(cc2NC(c2ccccc2F)C1O)OCO3 (stereo unspecified) the compound record lists TGI as > 100 µM
